Target: human GABAA α1β3γ2 receptor (Homo sapiens (Human), UniProt P14867+P18507)
Experiment: Radioligand binding assay for γ2-containing GABAA subtypes, [3H]Flumazenil competition (α1β3γ2)
Conditions: Ki α1β3γ2 (nM)/Ki α2β2γ1 (nM)
Procedure: The affinity of compounds at GABAA γ2 subunit-containing receptors was measured by competition for [^3H]Flumazenil (81.1 Ci/mmol; Roche) binding to HEK293F cells expressing human (transiently transfected) receptors of composition α1β3γ2. Harvested pellets from HEK293F cells expressing the different GABAA γ2 receptor subtypes were resuspended in Mannitol Buffer pH 7.2-7.4 and processed as described above for the cells expressing the GABAA γ1 subunit-containing receptors. […]
Binary label based on γ2/γ1 Selectivity Ratio with cut-off 100: below gives yes, not below gives no.

* C[C@@H]1N=C(c2c(F)cccc2F)c2c(ccc(C(F)(F)F)c2Cl)-n2ncnc21 | no
* C[C@H](O)CNC(=O)c1nc2n(n1)-c1ccc(C(F)(F)F)c(Cl)c1C(c1c(F)cccc1F)=N[C@H]2C | no
* COCc1cn2c(n1)CN=C(c1c(F)cccc1F)c1c-2ccc(Cl)c1Cl | yes
* C[C@@H]1N=C(c2c(F)cccc2F)c2c(ccc(Cl)c2Cl)-n2cc(C(=O)N3CCC3)nc21 | yes
* CO[C@H]1CCN(C(=O)c2nc3n(n2)-c2ccc(Cl)c(Cl)c2C(c2c(F)cccc2F)=N[C@H]3C)C1 | no
* C[C@@H]1N=C(c2c(F)cccc2F)c2c(ccc(Cl)c2Cl)-n2nc(C(N)=O)nc21 | no

====

Target: human GABAA α1β3γ2 receptor (Homo sapiens (Human), UniProt P14867+P18507)
Test: Radioligand binding assay for γ2-containing GABAA subtypes, [3H]Flumazenil competition (α1β3γ2)
Conditions: Ki α1β3γ2 (nM)/Ki α2β2γ1 (nM)
outcome_measure: γ2/γ1 Selectivity Ratio

* COC1CN(C(=O)c2nc3n(n2)-c2ccc(C(F)(F)F)c(Cl)c2C(c2ncccc2F)=N[C@H]3C)C1 | 1183.4
* C[C@@H]1N=C(c2c(F)cccc2F)c2c(ccc(Cl)c2Cl)-n2nc(C#N)nc21 | 41.5
* C[C@@H]1N=C(c2ncccc2F)c2c(ccc(C(F)(F)F)c2Cl)-n2cc(C(=O)N3CC(C)(O)C3)nc21 | 201.1
* C[C@@H]1N=C(c2c(F)cccc2F)c2c(ccc(Cl)c2Cl)-n2nc(NC(=O)N3CC(F)C3)nc21 | 46.2
* C[C@@H]1N=C(c2c(F)cccc2F)c2c(ccc(C(F)(F)F)c2Cl)-n2nc(C(=O)NN(C)C)nc21 | 276.4
* C[C@@H]1N=C(c2c(F)cccc2F)c2c(ccc(C(F)(F)F)c2Cl)-n2nc(NC(=O)N3C4CC3CS(=O)(=O)C4)nc21 (single isomer, unassigned) | 76.7
* Cc1c(C(=O)NCCO)nc2n1-c1ccc(C(F)(F)F)c(Cl)c1C(c1ncccc1F)=N[C@H]2C | 166.6

====

Target: human GABAA α1β3γ2 receptor (Homo sapiens (Human), UniProt P14867+P18507)
Experiment: Radioligand binding assay for γ2-containing GABAA subtypes, [3H]Flumazenil competition (α1β3γ2)
pKi: −log10 of the molar value.
// values below are reported pKi
outcome_measure: pKi

• CN(C)C(=O)c1nc2n(n1)-c1ccc(Cl)cc1C(c1ccccc1F)=NC2 [RE-A, reference compound] = 7.45
• C[C@@H]1N=C(c2ncccc2F)c2c(ccc(Cl)c2Cl)-n2nc(C(=O)N3CC4(CCOC4)C3)nc21 = 5.04
• C[C@@H]1N=C(c2c(F)cccc2F)c2c(ccc(Cl)c2Cl)-n2nc(C(=O)NC[C@@H](C)O)nc21 = 6.31
• C[C@@H]1N=C(c2c(F)cccc2F)c2c(ccc(C(F)(F)F)c2Cl)-n2nc(N3CCOC3=O)nc21 = 5.92
• O=C(NC1COC1)c1nc2n(n1)-c1ccc(Cl)c(Cl)c1C(c1c(F)cccc1F)=NC2 = 6.35
• C[C@@H]1N=C(c2ncccc2F)c2c(ccc(Cl)c2Cl)-n2nc(C(=O)N3CC4(CCCO4)C3)nc21 = 5.44
